Kindly supply the reported TGI values for the records listed here.
system: SNB-19 CNS; assay: NCI tumour cell line growth inhibition, 48 h
Write it as a number; the unit µM goes unstated.

What reported TGI corresponds to O=C(Nc1ccc(-n2cc(-c3ccncc3)c(-c3ccc(O)c(Cl)c3)n2)cc1)Nc1cc(C(F)(F)F)cc(C(F)(F)F)c1 on SNB-19 CNS?
16.5

What reported TGI corresponds to O=c1[nH]c(=S)[nH]c(O)c1/C=C1\C=Nc2ccccc21 on SNB-19 CNS?
59.3

* * *

Kindly supply the reported TGI values for the records listed here.
tested on: PC-3 prostate; assay: NCI tumour cell line growth inhibition, 48 h

Sample CC(=O)Oc1cc2c(cc1OCC(F)(F)F)[C@H]1CC[C@]3(C)[C@@H](OC(C)=O)CC[C@H]3[C@@H]1CC2=O — what was its TGI?
37.6 µM

Sample Cn1c(CO)ccc1-c1ccc(-c2ccc(CO)[se]2)[se]1 — what was its TGI?
> 100 µM

Sample C=CCOC(C)(C)C1=CCC(C)CC1 (stereo unspecified) — what was its TGI?
> 100 µM

Sample O=C1Nc2noc(=O)nc2NO1 — what was its TGI?
> 200 µM

Sample Nc1ncnc2c1c(-c1ccc(Oc3ccccc3)cc1)nn2CC1SSCC1O (stereo unspecified) — what was its TGI?
14.9 µM

Sample CN(C)c1cccc2c(S(=O)(=O)NCCN)cccc12 — what was its TGI?
> 100 µM

Sample CCOC(=O)N1CCNCCN(C(=O)OCC)CCNCC1 — what was its TGI?
> 100 µM

Sample COc1ccc(S(=O)(=O)NC(CCC(=O)NC(N)=O)C(=O)NC(N)=O)cc1 (stereo unspecified) — what was its TGI?
> 100 µM

Sample COc1cccc(-c2cc(=O)c3cc(N4CCN(C)CC4)ccc3[nH]2)c1 — what was its TGI?
> 100 µM

Sample COC1=C(OC)C(=O)C(Cc2c(Cl)nc3sccn23)=C(C)C1=O — what was its TGI?
28.5 µM

Sample [N-]=[N+]=CC(=O)C1CCN(c2ccccc2)C1=O (stereo unspecified) — what was its TGI?
> 10 µM

Sample Cc1ccc(S(=O)(=O)OCCN(CCOS(=O)(=O)c2ccc(C)cc2)c2ccc(C=O)cc2)cc1 — what was its TGI?
> 100 µM

Sample C/C(=C/CCC(C)[C@@H]1CC[C@]2(C)C3=C(CC[C@@]12C)[C@@]1(C)CCC(=O)C(C)(C)[C@@H]1CC3)C(=O)O (stereo partly specified) — what was its TGI?
2.51 µM

Sample [O-][n+]1c2cccc(O)c2[n+]([O-])c2cccc(O)c21 — what was its TGI?
> 100 µM

Sample Cc1nnc(SCc2nc(C#N)c(C#N)nc2CSc2nnc(C)s2)s1 — what was its TGI?
41.1 µM

Sample O=C(Nc1ccc(-n2cc(-c3ccncc3)c(-c3ccc(O)c(Cl)c3)n2)cc1)Nc1cc(C(F)(F)F)cc(C(F)(F)F)c1 — what was its TGI?
11.5 µM

Sample C[C@]12CCc3nc(Nc4ccc(O)cc4)sc3C1=CC[C@@H]1[C@@H]2CC[C@]2(C)/C(=N/NC(N)=S)CC[C@@H]12 — what was its TGI?
5.28 µM

Sample Cc1cccc2c1nc1n2C(=O)c2ccccc2-1 — what was its TGI?
> 100 µM

Sample NC(=O)CSc1nc2ccccc2c(=O)n1N — what was its TGI?
> 100 µM

Sample CCc1c(O)nc(Nc2nc3ccccc3[nH]2)[nH]c1=O — what was its TGI?
> 100 µM

Sample COc1cc(C=O)cc(C=Nc2ccc(Br)cc2)c1O — what was its TGI?
50.5 µM
